# Tested on: c-myc
# procedureDetails: Inhibition of c-myc expression in cancer cell lines (mRNA, real-time PCR)
# Assay type: cell-based
# Parameters: key: Active: Compounds with an IC50 value less than 30 μM were deemed to be active
# conditionSet: Human AML MV4-11 cells, 3 hours
# Protocol: MV4-11 cells (2.5×10^4 cells) were plated in 96 well U-bottom plates with test compound or DMSO (0.1%), and incubated for 3 hours at 37° C. Cells were then harvested by centrifugation, lysed, and mRNA was isolated using the mRNA catcher plus kit (Invitrogen). […] IC50 values were determined from a dose response curve.
resultType: c-myc activity (IC50 < 30 μM)

Please review the following examples before continuing.
# molecule, testTarget, c-myc activity (IC50 < 30 μM)
data = [
    ("COc1cc(OC)c2c(=O)[nH]c(-c3ccc(OCCN(C)C)c(-c4ccc([S+](C)[O-])cc4)c3)nc2c1 (centres unmarked)", "c-myc", "Active"),
    ("COc1cc(OC)c2c(=O)[nH]c(-c3ccc(OC4CN(C)C4)c(-c4ccc([S+](C)[O-])cc4)c3)nc2c1 (centres unmarked)", "c-myc", "Active"),
    ("COc1cc(OC)c2c(=O)[nH]c(-c3ccc(OC)c(-c4ccc([S+](C)[O-])cc4)n3)nc2c1 (centres unmarked)", "c-myc", "Active"),
    ("COc1cc(F)cc2nc(-c3ccc(OC4CNC4)c(-c4ccc([S+](C)[O-])cc4)c3)[nH]c(=O)c12 (centres unmarked)", "c-myc", "Not Active"),
    ("COc1cc(OC)c2c(=O)[nH]c(-c3ccc(OCCNC(C)C)c(-c4ccc([S+](C)[O-])cc4)n3)nc2c1 (centres unmarked)", "c-myc", "Active"),
    ("COc1cc(OC)c2c(=O)[nH]c(-c3ccc(OC)c(-c4ccc(S(C)(=O)=O)cc4)n3)nc2c1", "c-myc", "Not Active"),
    ("CCS(=O)(=O)c1ccc(-c2nc(-c3nc4cc(OC)cc(OC)c4c(=O)[nH]3)ccc2OCCN2CCOCC2)cc1", "c-myc", "Active"),
    ("COc1cc(OC)c2c(=O)[nH]c(-c3ccc(OCCNC(C)C)c(-c4ccc(C(=O)N(C)C)cc4)n3)nc2c1", "c-myc", "Active"),
]

What measured c-myc activity (IC50 < 30 μM) is associated with COc1cc(OC)c2c(=O)[nH]c(-c3ccc(OC)c(-c4ccc(C(=O)N(C)C)cc4Cl)n3)nc2c1 on c-myc?
Not Active

What measured c-myc activity (IC50 < 30 μM) is associated with COc1cc(OC)c2c(=O)[nH]c(-c3ccc(OCCNC(C)C)c(-c4ccc(S(C)(=O)=O)cc4)n3)nc2c1 on c-myc?
Active

What measured c-myc activity (IC50 < 30 μM) is associated with COc1cc(OC)c2c(=O)[nH]c(-c3ccc(OCCO)c(-c4ccc([S+](C)[O-])cc4)c3)nc2c1 (centres unmarked) on c-myc?
Not Active

What measured c-myc activity (IC50 < 30 μM) is associated with COc1cc(OC)c2c(=O)[nH]c(-c3ccc(OC4CN(C)C4)c(-c4ccc(C#N)cc4)c3)nc2c1 on c-myc?
Active

What measured c-myc activity (IC50 < 30 μM) is associated with COc1ccc2c(=O)[nH]c(-c3ccc(OCCO)c(-c4ccc([S+](C)[O-])cc4)n3)nc2c1 (centres unmarked) on c-myc?
Not Active

What measured c-myc activity (IC50 < 30 μM) is associated with COc1cc(OC)c2c(=O)[nH]c(-c3ccc(OCC[N+]4([O-])CCCC4)c(-c4ccc(S(C)(=O)=O)cc4)n3)nc2c1 on c-myc?
Not Active

* * *

# Test system: c-myc
# procedureDetails: Inhibition of c-myc expression in cancer cell lines (mRNA, real-time PCR)
# Assay type: cell-based
# Parameters: key: Active: Compounds with an IC50 value less than 30 μM were deemed to be active
# conditionSet: Human AML MV4-11 cells, 3 hours
resultType: c-myc activity (IC50 < 30 μM)

# compound, c-myc activity (IC50 < 30 μM)
measured = [
    ("CCS(=O)(=O)c1ccc(-c2nc(-c3nc4cc(OC)cc(OC)c4c(=O)[nH]3)ccc2OCCO)cc1", "Active"),
    ("COc1cc(OC)c2c(=O)[nH]c(-c3ccc(OCCN4CCCC4)c(-c4ccc(S(C)(=O)=O)cc4)n3)nc2c1.Cl", "Active"),
    ("COc1cc(OC)c2c(=O)[nH]c(-c3ccc(OCCNC(C)C)c(-c4ccccc4)n3)nc2c1", "Active"),
    ("COc1cc(OC)c2c(=O)[nH]c(-c3cccc(-c4ccc([S+](C)[O-])s4)c3)nc2c1 (stereo not drawn)", "Not Active"),
    ("COc1cc(OC)c2c(=O)[nH]c(-c3cccc(-c4ccc(C(=O)N(C)C)cc4)n3)cc2c1", "Not Active"),
    ("COc1cc(OC)c2c(=O)[nH]c(-c3ccc(OCCO)c(-c4ccc([S+](C)[O-])cc4)n3)nc2c1 (stereo not drawn)", "Active"),
]

What measured c-myc activity (IC50 < 30 μM) is associated with COc1cc(OC)c2c(=O)[nH]c(-c3ccc(OCCO)c(-c4ccc(S(C)(=O)=O)cc4C)n3)nc2c1 on c-myc?
Active

What measured c-myc activity (IC50 < 30 μM) is associated with COc1cc(OC)c2c(=O)[nH]c(-c3ccc(OCCO)c(-c4ccc(C(=O)N(C)C)cc4C)n3)nc2c1 on c-myc?
Not Active

What measured c-myc activity (IC50 < 30 μM) is associated with COc1ccc2c(=O)[nH]c(-c3ccc(OCCNC(C)C)c(-c4ccc(S(C)(=O)=O)cc4)n3)nc2c1 on c-myc?
Active

* * *

# Tested on: c-myc
# procedureDetails: Inhibition of c-myc expression in cancer cell lines (mRNA, real-time PCR)
# Assay type: cell-based
# Parameters: key: Active: Compounds with an IC50 value less than 30 μM were deemed to be active
# conditionSet: Human AML MV4-11 cells, 3 hours
resultType: c-myc activity (IC50 < 30 μM)

Please review the following examples before continuing.
# compound, testTarget, valueObserved
records = [
    ("COc1ccc(-c2nc3cccc(OC)c3c(=O)[nH]2)nc1-c1ccc([S+](C)[O-])cc1 (stereo not shown)", "c-myc", "Not Active"),
    ("COc1cc(OC)c2c(=O)[nH]c(-c3ccc(OCCN4CCCC4)c(-c4ccc([S+](C)[O-])cc4)n3)nc2c1 (stereo not shown)", "c-myc", "Not Active"),
    ("COc1cc(F)cc2nc(-c3ccc(OC4CN(C)C4)c(-c4ccc([S+](C)[O-])cc4)c3)[nH]c(=O)c12 (stereo not shown)", "c-myc", "Active"),
    ("COc1cc(OC)c2c(=O)[nH]c(-c3ccc(OCCO)c(-c4ccc(C(=O)N(C)C)cc4Cl)n3)nc2c1", "c-myc", "Active"),
    ("COc1cc(OC)c2c(=O)[nH]c(-c3ccc(OCCNC(C)C)c(-c4cccc([S+](C)[O-])c4)n3)nc2c1 (stereo not shown)", "c-myc", "Active"),
    ("COc1cc(OC)c2c(=O)[nH]c(-c3ccc(OCCNC(C)C)c(-c4ccc(S(C)(=O)=O)cc4C)n3)nc2c1", "c-myc", "Active"),
]

Please examine the following record next.
Please report the recorded c-myc activity (IC50 < 30 μM) for COc1cc(OC)c2c(=O)[nH]c(-c3ccc(OCCO)c(-c4cccc([S+](C)[O-])c4)n3)nc2c1 (stereo not shown) .
Active

* * *

Where a name gives a salt, the structure may show the parent alone.
Listed here are molecules together with their documented melting point.

Please review the following examples before continuing.
# molecule, valueObserved
measured = [
    ("COc1cc(OC)c2c(=O)[nH]c(-c3ccc(OCCNC(C)C)c(-c4cccc(S(C)(=O)=O)c4)n3)nc2c1", "222 to 223 °C"),
    ("COc1cc(OC)c2c(=O)[nH]c(-c3ccc(OC)c(-c4ccc([S+](C)[O-])cc4)n3)nc2c1 (stereo not shown)", "266 to 267 °C"),
    ("COc1cc(OC)c2c(=O)[nH]c(-c3ccc(OCCO)c(-c4cccc([S+](C)[O-])c4)n3)nc2c1 (stereo not shown)", "272 to 273 °C"),
    ("COc1cc(OC)c2c(=O)[nH]c(-c3cc(-c4ccc([S+](C)[O-])cc4)c4[nH]ccc4c3)nc2c1 (stereo not shown)", "316 °C (dec.)"),
    ("COc1cc(OC)c2c(=O)[nH]c(-c3ccc(OCCNC(C)C)c(-c4ccccc4)n3)nc2c1", "179 to 180 °C"),
    ("COc1cc(OC)c2c(=O)[nH]c(-c3ccc(OCCN4CCCC4)c(-c4ccc([S+](C)[O-])cc4)n3)nc2c1 (stereo not shown)", "103 to 105 °C"),
]

Please examine the following record next.
Please report the recorded melting point for CCS(=O)(=O)c1ccc(-c2nc(-c3nc4cc(OC)cc(OC)c4c(=O)[nH]3)ccc2OCCN2CCCC2)cc1 (as salt: hydrochloride) .
235 to 236 °C
